Each recorded value in this set is attributed to ChEMBL document CHEMBL3638971.

target: RAC-beta serine/threonine-protein kinase (Homo sapiens, UniProt P31751); assay: TR-FRET Assay: Akt2 inhibitory activity of compounds of the present invention was quantified employing the Akt2 TR-FRET assay as described in the following paragraphs.His-tagged human recombinant kinase full-length Akt2 expressed in insect cells and activated by PDK1 was purchased form Invitrogen (part number PV 3975). As substrate for the kinase reaction the biotinylated peptide biotin-Ahx- KKLNRTLSFAEPG (C-terminus in amide form) was used which can be purchased e.g. from the company Biosynthan GmbH (Berlinn-Buch, Germany). For the assay 50 nl of a 10Ofold concentrated solution of the test compound in DMSO was pipetted into a black low volume 384well microtiter plate (Greiner Bio- One, Frickenhausen, Germany), 2 ul of a solution of Akt2 in assay buffer [50 mM TRIS/HCI pH 7.5, 5 mM MgCI2, 1 mM dithiothreitol, 0.02% (v/v) Triton X-100 (Sigma)] were added and the mixture was incubated for 15 min at 22C to allow pre-binding of the test compounds to the enzyme before the start of the kinase reaction.
Sequence (P31751 whole entry): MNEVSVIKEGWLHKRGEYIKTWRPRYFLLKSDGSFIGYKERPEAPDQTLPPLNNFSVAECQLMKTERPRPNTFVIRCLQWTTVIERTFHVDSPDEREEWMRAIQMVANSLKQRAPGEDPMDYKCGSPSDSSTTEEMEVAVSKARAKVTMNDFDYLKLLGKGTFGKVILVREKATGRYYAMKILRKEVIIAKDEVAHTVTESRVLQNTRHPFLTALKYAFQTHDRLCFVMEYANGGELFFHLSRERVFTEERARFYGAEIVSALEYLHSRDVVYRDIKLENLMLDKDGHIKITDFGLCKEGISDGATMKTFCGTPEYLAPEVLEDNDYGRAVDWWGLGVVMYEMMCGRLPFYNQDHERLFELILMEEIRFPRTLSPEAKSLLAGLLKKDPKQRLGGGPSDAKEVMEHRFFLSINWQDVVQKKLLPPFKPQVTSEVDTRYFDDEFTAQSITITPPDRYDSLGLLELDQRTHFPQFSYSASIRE
Mark each entry true (1) if its IC50 sits below 100 nM, and false (0) for all others.

[[record]]
structure_smiles_string = "Cc1nc2nc(-c3ccc(CN4CC(c5n[nH]c(-c6ccccn6)n5)C4)cc3)c(-c3ccccc3)c(C)n2n1"
label = "true (1)"


**Q:** Determine whether this compound shows IC50 lower than 100 nM (ties excluded): `CSc1nc2nc(-c3ccc(CN4CCC(c5n[nH]c(-c6ccccn6)n5)CC4)cc3)c(-c3ccccc3)cn2n1`
**A:** true (1)

**Q:** Is IC50 strictly under 100 nM for the entry `CSc1nc2nc(-c3ccc(CN4CCC(c5n[nH]c(-c6cccc(C)n6)n5)CC4)cc3)c(-c3ccccc3)cn2n1` ?
**A:** true (1)

**Q:** Just wondering, is IC50 of `CNc1c(-c2ccccc2)c(-c2ccc(CN3CC(c4n[nH]c(-c5cccc(C)n5)n4)C3)cc2)nc2nc(C)nn12` below 100 nM?
**A:** true (1)

**Q:** Quick check: does `Cc1cccc(-c2nc(C3CN(Cc4ccc(-c5nc6nc(C)nn6c(C)c5-c5ccccc5)cc4)C3)n[nH]2)n1` have IC50 under 100 nM?
**A:** true (1)

**Q:** State whether 100 nM exceeds IC50 recorded for `Cc1nc2nc(-c3ccc(CN4CC(c5n[nH]c(-c6ccccn6)n5)C4)cc3)c(-c3ccccc3)c(NC3CCC3)n2n1` .
**A:** false (0)
